# EXPERIMENT: cytotoxicity in Drosophila DL1 cells
# Format: cell-based
# CONDITION_CONTEXT: Drosophila, DL1 cells (embryonic macrophage-derived), DL1 cells, 20 µM, replicate 1, relative to DMSO 1%; read-out: % viability, viability 1
MEASURED_ENDPOINT: viability at 20 µM (%)
Dear colleague, please return just the value in %, with no unit written.

Look over these answered cases.
C=C1CC[C@H]2[C@]3(C)C[C@@H](C=C(C)C)O[C@H]3CC[C@]2(C)[C@@H]1Cc1c(O)c(C)c(C)oc1=O [Compound 5, subglutinol A] :: 3.33
C=C1CC[C@H]2[C@]3(C)C[C@H](C=C(C)C)O[C@H]3CC[C@]2(C)[C@@H]1Cc1c(OC)oc(C)c(C)c1=O [Compound 24] :: 7.46

Asked: Param item = C=C1CC[C@@H]2[C@](C)(CC[C@H]3O[C@H](C=C(C)C)C[C@@]23C)[C@@H]1Cc1c(O)c(C)c(C)oc1=O [Compound 10, higginsianin A] ; retrieve measured viability at 20 µM.
Given back: 5.78

----------
# TARGET_OF_ASSAY: Aβ42 (Homo sapiens, UniProt P05067)
# Sequence (P05067 672-713): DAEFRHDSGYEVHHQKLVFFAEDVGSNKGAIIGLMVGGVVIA
# EXPERIMENT: Th-T (thioflavin-T) assay of Aβ42 aggregation
# Format: biochemical
# CONDITION_CONTEXT: compound at 10; reading M44 of time course
MEASURED_ENDPOINT: Th-T fluorescence, mean of three wells
Number, no unit, nothing else.

Look over these answered cases.
C=C1CC[C@@H]2[C@](C)(CC[C@H]3O[C@H](C=C(C)C)C[C@@]23C)[C@@H]1Cc1c(OC)oc(CO)c(C(=O)OC)c1=O :: 0.2585
C=C1CCC2C(C)(CCC=C(C)C)C(O)CCC2(C)C1Cc1c(OC)oc(CO)c(C(=O)OC)c1=O (centres unmarked) :: 1.377

Asked: Item C=C1CCC2C(C)(CCC=C(C)C)C(O)CCC2(C)C1Cc1c(OC)oc(CO)c(C)c1=O (centres unmarked) with Aβ42 (Homo sapiens, UniProt P05067) - Th-T fluorescence, mean of three wells?
Given back: 3.34

Asked: Next molecule: C=C1CCC2C(C)(CCC=C(C)C)C(O)CCC2(C)C1Cc1c(OC)oc(C)c(C(=O)OC)c1=O (centres unmarked)
Given back: 2.485

Asked: Next molecule: "C=C1CC[C@@H]2[C@](C)(CC[C@H]3O[C@H](C=C(C)C)C[C@@]23C)[C@@H]1Cc1c(OC)oc(CO)c(C)c1=O"
Given back: 3.466

----------
# TARGET_OF_ASSAY: UniProtKB P05067
# EXPERIMENT: Th-T (thioflavin-T) assay of Aβ42 aggregation
# Assay type: biochemical
# CONDITION_CONTEXT: column suffix _10; measurement M20
Reported Th-T fluorescence, mean of three wells (Fig. 7a) is given for each of the following compounds.
Number, no unit, nothing else.

Look over these answered cases.
C=C1CCC2C(C)(CCC=C(C)C)C(O)CCC2(C)C1Cc1c(OC)oc(C)c(C(=O)OC)c1=O (centres unmarked) [Compound 14] :: 2.087
C=C1CCC2C(C)(CCC=C(C)C)C(O)CCC2(C)C1Cc1c(OC)oc(CO)c(C(=O)OC)c1=O (centres unmarked) [Compound 13] :: 0.2323
C=C1CC[C@@H]2[C@](C)(CC[C@H]3O[C@H](C=C(C)C)C[C@@]23C)[C@@H]1Cc1c(OC)oc(CO)c(C)c1=O [Compound 20] :: 3.391
C=C1CCC2C(C)(CCC=C(C)C)C(O)CCC2(C)C1Cc1c(OC)oc(CO)c(C)c1=O (centres unmarked) [Compound 12] :: 2.604

Let's switch to this compound now.
Asked: Item C=C1CC[C@@H]2[C@](C)(CC[C@H]3O[C@H](C=C(C)C)C[C@@]23C)[C@@H]1Cc1c(OC)oc(CO)c(C(=O)OC)c1=O [Compound 21] with UniProtKB P05067 - Th-T fluorescence, mean of three wells (Fig. 7a)?
Given back: 0.2276
